Value source: ChEMBL document CHEMBL5584268

tested on: Caenorhabditis elegans; test: Nematicidal activity against Caenorhabditis elegans at 10 to 100 ug/ml incubated for 18 hrs by stereomicroscopic analysis; assay type: functional, organism-based; conditions: dose 10-100 µg/ml
Activity calls are given as the source filed them. The calls are words filed in the database; no cut-off is given here.
assay_metric: Activity

CC[C@H](C)C[C@@H](C)/C=C(C)/C=C/C[C@H](C)[C@H](O)[C@@H](C)/C=C(C)/C=C/[C@H](O)C(C)(C)c1cc(O)c([C@H]2O[C@@H](CO)C[C@@H](O)[C@@H]2O)c(=O)o1 inactive
COc1cc2c(c(O)c1Cc1c(O)c(O)c3cc(C)oc(=O)c3c1O)C(=O)CC[C@H]2O inactive
COc1cc2c(c(O)c1/C=C/C(C)=O)C(=O)CC[C@H]2O inactive
CC[C@H](C)[C@H](O)[C@@H](C)/C=C(C)/C=C/C[C@H](C)[C@H](O)[C@@H](C)/C=C(C)/C=C/[C@H](O)C(C)(C)c1cc(O)c([C@H]2O[C@@H](CO)C[C@@H](O)[C@@H]2O)c(=O)o1 inactive

Ask | # input molecule: COc1cc2c(c(O)c1CO)C(=O)CC[C@H]2O ; wanted: its Activity
Reply | inactive

----------
test system: Aspergillus fumigatus; assay: Antimicrobial activity against Aspergillus fumigatus ATCC 204305 measured after 72 hrs by serial dilution assay; type: functional
assay_metric: MIC (µg/mL)
Output spec: scalar in µg/mL, unitless text.

The examples below pair each entry with its known result.
compound	assay_metric	unit_name	measured_value
CC[C@H](C)[C@H](O)[C@@H](C)/C=C(C)/C=C/C[C@H](C)[C@H](O)[C@@H](C)/C=C(C)/C=C/[C@H](O)C(C)(C)c1cc(O)c([C@H]2O[C@@H](CO)C[C@@H](O)[C@@H]2O)c(=O)o1	MIC	µg/mL	0.26
C[C@@H]1[C@H](O)[C@@H](C)/C=C/C=C/C=C/C=C/C=C/C=C/C=C/[C@H](O[C@@H]2O[C@H](C)[C@@H](O)[C@H](N)[C@@H]2O)C[C@@H]2O[C@](O)(C[C@@H](O)C[C@@H](O)[C@H](O)CC[C@@H](O)C[C@@H](O)CC(=O)O[C@H]1C)C[C@H](O)[C@H]2C(=O)O [AMPHOTERICIN B]	MIC	µg/mL	0.31

Ask | # input compound: CC[C@H](C)C[C@@H](C)/C=C(C)/C=C/C[C@H](C)[C@H](O)[C@@H](C)/C=C(C)/C=C/[C@H](O)[C@@H](C)c1cc(O)c([C@H]2O[C@@H](CO)C[C@@H](O)[C@@H]2O)c(=O)o1 ; wanted: its MIC
Reply | 8.32

Ask | # input compound: CC[C@H](C)C[C@@H](C)/C=C(C)/C=C/C[C@H](C)[C@H](O)[C@@H](C)/C=C(C)/C=C/[C@H](O)C(C)(C)c1cc(O)c([C@H]2O[C@@H](CO)C[C@@H](O)[C@@H]2O)c(=O)o1 ; wanted: its MIC
Reply | 0.52
